In this scheme, each record receives a class according to its melting point; the ranges are low (below 40 °C), intermediate (40 °C to below 100 °C), high (100 °C or more)

>>> print(df.to_string())
                                   compound  category
0  COc1cc2c(c3oc(=O)c4c(c13)CCOC4=O)C1C=COC1O2 (centres undefined)      high
1  CC(=O)OCC(=O)[C@@]12N=C(C)O[C@@H]1C[C@H]1[C@@H]3CCC4=CC(=O)C=C[C@]4(C)[C@H]3[C@@H](O)C[C@@]12C      high
2  Cc1nc2n(c(=O)c1CCN1CCC(c3noc4cc(F)ccc34)CC1)CCCC2      high

Exercise: Sort into band: `NC[C@H](O)[C@@H](O)[C@@H](O)[C@H](O)CO`
Key: high

Exercise: Also `Ic1ccc(I)s1` ?
Key: intermediate

The values you see were collected from the OPERA property sets (Mansouri et al. 2018).
